- experimental.target: Recombinant human cathepsin A (Homo sapiens)
- Construct: Recombinant human cathepsin A (residues 29-480, with a C-terminal 10-His tag); 10-His (C); purchased R&D Systems 1049-SE
- Sequence (P10619 29-312 limits assumed): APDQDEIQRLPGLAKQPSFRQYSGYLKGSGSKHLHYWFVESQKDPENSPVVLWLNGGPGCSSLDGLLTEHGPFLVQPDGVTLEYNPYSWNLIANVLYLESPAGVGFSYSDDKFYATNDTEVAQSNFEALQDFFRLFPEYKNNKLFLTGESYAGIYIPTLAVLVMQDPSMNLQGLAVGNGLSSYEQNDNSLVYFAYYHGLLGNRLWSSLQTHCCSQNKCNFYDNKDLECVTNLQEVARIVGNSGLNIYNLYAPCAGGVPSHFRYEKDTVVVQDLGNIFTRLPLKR
- Sequence (P10619 327-480 limits assumed): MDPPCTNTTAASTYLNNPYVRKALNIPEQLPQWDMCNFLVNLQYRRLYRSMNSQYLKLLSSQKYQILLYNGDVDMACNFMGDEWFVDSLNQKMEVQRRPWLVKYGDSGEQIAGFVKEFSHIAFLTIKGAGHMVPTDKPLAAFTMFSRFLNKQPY
- experiment.description: Cathepsin A inhibitory activity
- Assay type: biochemical
- reported.conditions: read-out: Activity (2): Cathepsin A inhibitory activity (IC50 class)
pIC50: −log10 of the molar value.
For each entry below, report its pIC50 value.

[Q] Report pIC50 for COc1cc(C(=O)N[C@@H](CC(=O)O)c2ccccc2C)nn1-c1cc(F)ccc1F [Example 610] please.
[A] > 7.00

[Q] Report pIC50 for Cc1ccc([C@H](CC(=O)O)NC(=O)c2cc(OC[C@H](O)C(C)(C)C)n(-c3ccccc3F)n2)cc1 [Example 788] please.
[A] > 7.00

[Q] Report pIC50 for Cc1ccccc1[C@H](CC(=O)O)NC(=O)c1cc(O)n(C2CCCCC2)n1 [Example 573] please.
[A] > 7.00

[Q] Report pIC50 for CCOc1cc(C(=O)NC(CC(=O)O)c2ccc(F)cc2)nn1-c1ccccc1Cl (stereo not shown) [Example 739] please.
[A] 6.00 to 7.00

[Q] Report pIC50 for CCOc1cc(C(=O)N[C@@H](CC(=O)O)c2cccc(Cl)c2Cl)nn1-c1ccccc1F [Example 722] please.
[A] > 7.00

[Q] Report pIC50 for COc1cc(C(=O)N[C@@H](CC(=O)O)c2ccccc2C(F)(F)F)nn1-c1ccccc1F [Example 680] please.
[A] 6.00 to 7.00

[Q] Report pIC50 for CCOc1cc(C(=O)N[C@@H](CC(=O)O)c2ccc(Cl)cc2)nn1-c1ccccc1Cl [Example 733] please.
[A] > 7.00

[Q] Report pIC50 for COc1cc(C(=O)N[C@@H](CC(=O)O)c2ccc(C(F)(F)F)cc2)nn1-c1ccccc1F [Example 674] please.
[A] > 7.00

[Q] Report pIC50 for CS(=O)(=O)c1ccc(C(CC(=O)O)NC(=O)c2cc(O)n(-c3ccccc3F)n2)cc1 (stereo not shown) [Example 603] please.
[A] 4.52 to 6.00

[Q] Report pIC50 for Cc1ccccc1[C@H](CC(=O)O)NC(=O)c1cc(O)n(-c2c(F)cccc2F)n1 [Example 588] please.
[A] 6.00 to 7.00

[Q] Report pIC50 for Cc1ccccc1[C@H](CC(=O)O)NC(=O)c1cc(OCC2CCOC2)n(-c2ccccc2F)n1 (stereo partly shown) [Example 650] please.
[A] > 7.00

[Q] Report pIC50 for COc1cccc([C@H](CC(=O)O)NC(=O)c2cc(OCC3CC3)n(-c3ccccc3F)n2)c1 [Example 689] please.
[A] 6.00 to 7.00

[Q] Report pIC50 for O=C(O)CC(NC(=O)c1cc(O)n(-c2ccccc2F)n1)c1ccc(-c2cccc(Cl)c2)cc1 (stereo not shown) [Example 541] please.
[A] 6.00 to 7.00

[Q] Report pIC50 for Cc1ccccc1[C@H](CC(=O)O)NC(=O)c1cc(OC2CCCC2)n(-c2ccccc2F)n1 [Example 626] please.
[A] > 7.00

[Q] Report pIC50 for O=C(O)CC(NC(=O)c1cc(O)n(-c2ccccc2)n1)c1ccc(-c2ccc(C(F)(F)F)cc2)cc1 (stereo not shown) [Example 579] please.
[A] 4.52 to 6.00

[Q] Report pIC50 for COc1ccc(-c2ccccc2)cc1C(CC(=O)O)NC(=O)c1cc(O)n(-c2ccccc2Cl)n1 (stereo not shown) [Example 562] please.
[A] 4.52 to 6.00

[Q] Report pIC50 for Cc1ccccc1[C@H](CC(=O)O)NC(=O)c1cc(OCCCF)n(-c2ccccc2F)n1 [Example 641] please.
[A] > 7.00

[Q] Report pIC50 for Cc1c(F)cccc1C(CC(=O)O)NC(=O)c1cc(OCC2CC2)n(-c2ccccc2F)n1 (stereo not shown) [Example 684] please.
[A] > 7.00

[Q] Report pIC50 for CCOc1cc(C(=O)NC(CC(=O)O)c2ccc(F)cc2C)nn1-c1ccccc1Cl (stereo not shown) [Example 738] please.
[A] > 7.00

[Q] Report pIC50 for CC(C)(C)[C@@H](O)COc1cc(C(=O)N[C@@H](CC(=O)O)c2ccccc2Cl)nn1-c1ccccc1F [Example 793] please.
[A] > 7.00

[Q] Report pIC50 for CCOc1cc(C(=O)N[C@@H](CC(=O)O)c2ccccc2F)nn1-c1ccccc1F [Example 720] please.
[A] > 7.00

[Q] Report pIC50 for COc1cccc([C@H](CC(=O)O)NC(=O)c2cc(OC)n(-c3ccccc3F)n2)c1 [Example 669] please.
[A] 6.00 to 7.00

[Q] Report pIC50 for CC(C)(C)[C@H](O)COc1cc(C(=O)N[C@@H](CC(=O)O)c2ccc(Cl)cc2Cl)nn1-c1ccccc1F [Example 754] please.
[A] > 7.00

[Q] Report pIC50 for CCOc1cc(C(=O)N[C@@H](CC(=O)O)c2ccc(Cl)cc2)nn1-c1ccccc1F [Example 713] please.
[A] > 7.00

[Q] Report pIC50 for O=C(O)CC(NC(=O)c1cc(O)n(-c2ccccc2Cl)n1)c1ccc(-c2ccccc2F)cc1 (stereo not shown) [Example 585] please.
[A] 6.00 to 7.00

[Q] Report pIC50 for CCOc1cc(C(=O)NC(CC(=O)O)c2cccc(C)c2C)nn1-c1ccccc1F (stereo not shown) [Example 723] please.
[A] > 7.00

[Q] Report pIC50 for Cc1ccc([C@H](CC(=O)O)NC(=O)c2cc(OC[C@](C)(O)C(C)(C)C)n(-c3ccccc3F)n2)cc1 [Example 780] please.
[A] > 7.00

[Q] Report pIC50 for Cc1ccccc1[C@H](CC(=O)O)NC(=O)c1cc(OC2CCCCC2)n(-c2ccccc2F)n1 [Example 631] please.
[A] > 7.00

[Q] Report pIC50 for Cc1ccccc1[C@H](CC(=O)O)NC(=O)c1cc(OCc2ccno2)n(-c2ccccc2F)n1 [Example 658] please.
[A] > 7.00

[Q] Report pIC50 for Cc1ccccc1[C@H](CC(=O)O)NC(=O)c1cc(OC[C@@H](O)C(C)(C)C)n(-c2ccccc2F)n1 [Example 746] please.
[A] > 7.00

[Q] Report pIC50 for COc1cccc(COc2cc(C(=O)N[C@@H](CC(=O)O)c3ccccc3C)nn2-c2ccccc2F)c1 [Example 655] please.
[A] > 7.00
